# TESTED_SYSTEM: bromodomain BRD4 (44-168), BRD4 (333-460), and BRD4 (1-477 or 44-460) (Homo sapiens, UniProt O60885)
# Construct: BRD4(44-168), BRD4(333-460), BRD4(44-460), BRD4(1-477), O60885-1; fused on or other part: N-terminal BirA biotinylation motif, biotinylated; The TVMV-cleavable His6 tag is removed, except in some BRD4(44-460) runs detected with anti-His terbium cryptate
# PROTOCOL_DETAILS: Time Resolved Fluorescence Resonance Energy Transfer (TR-FRET) binding assay
# MEASUREMENT_CONTEXT: one of the FRET assays described
Form field: IC50 (one value per entry).

COMPOUND | IC50
Cc1noc(C)c1-c1cc(C(N)=O)c2c3cc(C(=O)N4CC(C)OC(C)C4)ccc3n(Cc3cscn3)c2c1 (stereo not shown) | < 50 nM
Cc1noc(C)c1-c1cc(C(N)=O)c2c3cc(N4CC(C)(C)COC4=O)ccc3n(Cc3ccccc3)c2c1 | < 50 nM
Cc1noc(C)c1-c1cc(C(N)=O)c2c3cc(C(=O)N4CC(C)OC(C)C4)ccc3n(Cc3ccccc3F)c2c1 (stereo not shown) | < 50 nM
Cc1noc(C)c1-c1cc(C(N)=O)c2c3cc(C(=O)N4CC(F)(F)C4)ccc3n(Cc3ccccc3)c2c1 | < 50 nM
